- experiment-summary: MTT cytotoxicity assay on MT-2 cells
- run-parameters: human
readout-name: CC50 at 4 days (µM)
All answers are understood in µM, so give the number only.

Task item: Give the reported CC50 at 4 days for this molecule. O=c1c(O)c(-c2ccc(O)c(O)c2)oc2cc(O)cc(O)c12 [Quercetin (3), quercetin]
Reply: 157

====

- experiment-summary: MTT cytotoxicity assay on MT-4 cells
- run-parameters: human
- Experimental: The permanent human T-cell lines MT-4 and MT-2 were maintained at 37°C in a humidified atmosphere containing 5% CO2 in RPMI 1640 (Sigma-Aldrich) medium supplemented with 10% heat-inactivated fetal bovine serum (Sigma-Aldrich), 100 IU/ml penicillin and 100 μg/ml streptomycin (Sigma-Aldrich). HIV-1 (HTLV-IIIB) was obtained from the culture supernatant of MT-4/HTLV-IIIB cells. The 50% HIV-1 tissue culture infectious dose (TCID50) on MT-4 cells was determined by virus yield assay. […]
readout-name: CC50 at 4 days (µM)
A number alone suffices; assume µM.

Task item: Determine its reported CC50 at 4 days: O=c1c(O)c(-c2ccc(O)c(O)c2)oc2cc(O)cc(O)c12
Reply: 108

====

- experiment-summary: MTT cytotoxicity assay on MT-2 cells
- run-parameters: human, MT-2 cells
- Protocol: The permanent human T-cell lines MT-4 and MT-2 were maintained at 37°C in a humidified atmosphere containing 5% CO2 in RPMI 1640 (Sigma-Aldrich) medium supplemented with 10% heat-inactivated fetal bovine serum (Sigma-Aldrich), 100 IU/ml penicillin and 100 μg/ml streptomycin (Sigma-Aldrich). HIV-1 (HTLV-IIIB) was obtained from the culture supernatant of MT-4/HTLV-IIIB cells. The 50% HIV-1 tissue culture infectious dose (TCID50) on MT-4 cells was determined by virus yield assay. […]
CC50 at 4 days by entry:
# output: bare number, implied unit µM

molecule | readout-name | units-text | number
O=c1c(O)c(-c2ccc(O)cc2)oc2c(O)c(OC3OC(CO)C(O)C(O)C3O)cc(O)c12 (centres unmarked) [Herbacitrin (1), herbacitrin] | CC50 at 4 days | µM | 63.6

Here's the next entry for you.
Task item: Answer with reported CC50 at 4 days of O=c1c(O)c(-c2ccc(O)c(O)c2)oc2c(O)c(OC3OC(CO)C(O)C(O)C3O)cc(O)c12 (centres unmarked) [Gossypitrin (2), gossypitrin]
Reply: 113
